- Test system: U-118-MG
- protocol_details: Antiproliferative activity against human U118MG cells after 72 hrs by SRB assay
- Format: functional, cell-based
- condition_parameters: pooled result: one value given for 25 cell lines, strains, targets or settings
For each record, write down the corresponding IC50.
Numbers only, in nM.

COc1cc2c3c(c4ccc(O)cc4c2cc1OC)CN1CCCC[C@@H]1C3    2.1

--- query ---
Request: Param item = COc1cc2c3c(c4cc(OC)c(OC)cc4c2cc1OC)[C@H](O)[C@@H]1CCCN1C3 ; retrieve measured IC50.
Response: 167

----------
- Test system: L02
- protocol_details: Antiproliferative activity against human LO2 cells assessed as reduction in viability after 72 hrs by SRB assay
- Assay type: cell-based
- condition_parameters: L02, 72 h
For each record, write down the corresponding IC50.
Numbers only, in nM.

COc1cc2c3c(c4ccc(OCC#N)cc4c2cc1OC)CN1CCCC[C@@H]1C3    3.9

--- query ---
Request: Param item = COc1cc2c3c(c4ccc(O)cc4c2cc1OC)CN1CCCC[C@@H]1C3 ; retrieve measured IC50.
Response: 2.7

----------
For each record, write down the corresponding IC50.
- System: HL-60
- protocol_details: Antiproliferative activity against human HL60 cells after 72 hrs by MTT assay
- Type: functional, cell-based
- condition_parameters: HL-60, 72 h
Give bare numbers, in nM.

Examples with their reported IC50 follow.
Cl.Cl.O=C1c2c(O)ccc(O)c2C(=O)c2c(NCCNCCO)ccc(NCCNCCO)c21 [MITOXANTRONE HYDROCHLORIDE]    7.2
COc1cc2c3c(c4ccc(O)cc4c2cc1OC)CN1CCCC[C@@H]1C3    1.8

--- query ---
Request: Param item = COc1cc2c3c(c4cc(OC)c(OC)cc4c2cc1OC)[C@H](O)[C@@H]1CCCN1C3 ; retrieve measured IC50.
Response: 213
